B1: Hairpin Ribozyme (parent)
chain: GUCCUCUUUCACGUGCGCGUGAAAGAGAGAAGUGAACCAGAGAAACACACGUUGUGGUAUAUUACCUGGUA

- Variants of: B1
- procedure.details: self-cleavage, relative activity (ratio to wild type); higher = more cleavage; co-transcriptional
For each of the variants below, state its self-cleavage.

Worked cases, answers included:
mutation_spec="C3G A71G" reading=0.308
mutation_spec="A28C C48A" reading=0.122
mutation_spec="A28C U70C" reading=0.426

I'm hoping you can list self-cleavage for every variant here, please.
1. U9G U58A
2. G29A A36C
3. U33A C37G
4. U52G G57A

RESULT:
[0.549, 0.0858, 0.182, 0.181]

I'm hoping you can list self-cleavage for every variant here, please.
1. G25A A26U
2. C10U G54C
3. A23C U52C
4. U55A A59G
5. C6A U60C
6. G27C G29U

RESULT:
1: 0.175; 2: 0.444; 3: 0.77; 4: 0.163; 5: 0.793; 6: 0.179

I'm hoping you can list self-cleavage for every variant here, please.
1. U14C A44C
2. C38A G56U
3. A35G G40A
4. A23U C37U
5. G13U A36G
6. C6A C46U

RESULT:
[0.241, 0.179, 0.24, 0.594, 0.65, 0.171]
